This collection of values is drawn from PubChem BioAssay (NCATS).

# ASSAY PROTOCOL: Quantitative High-Throughput drug screen in 47 multiple myeloma cell lines against the NCATS MIPE library collection: OPM1_PLB cell viability assay (AID 1918989); note: nearly all actives have a fitted effect of over 40% in size; note: potency is the fitted concentration of half-maximal effect
# EXPERIMENTAL CONTEXT: CellTiter-Glo, 48 h; series mostly up to 45.8 µM
Results filed as inconclusive are left out. Calls of active or inactive are those of the source. Calls come from the whole dose curve; as a rule, active = well fitted cell-killing curve with a large enough effect; inconclusive = small, poorly fitted or top-dose-only effect, or effect the other way; inactive = no such curve, though single readings can be large or run the other way.

{"columns": ["STRUCTURE NOTATION", "Potency"],
 "data": [
  ["CCOc1ccccc1N=Nc1c(C)[nH]n(-c2nc(-c3ccccc3)cs2)c1=O", "inactive"],
  ["Nc1ncnc2c1ncn2[C@@H]1O[C@H](CO)[C@@H](O)[C@@H]1O", "20.9 µM (active)"],
  ["O=C(O)C1=CO[C@@H](O[C@@H]2O[C@H](CO)[C@H](O)[C@H](O)[C@H]2O)[C@@H]2C(CO)=CC[C@H]12", "inactive"],
  ["Cn1c(=O)c(-c2c(Cl)cccc2Cl)cc2cnc(Nc3cccc(C(=O)O)c3)nc21", "inactive"],
  ["CCC[C@H](Nc1nc(-c2ccc(NC(=O)NCC)c(OC)c2)ncc1C)c1cccnc1", "0.001 µM (active)"],
  ["C=C1[C@H](n2cnc3c(=O)[nH]c(N)nc32)C[C@H](O)[C@H]1CO", "2.35 µM (active)"],
  ["NC[C@H]1O[C@H](O[C@@H]2[C@@H](O)[C@@H](O[C@H]3O[C@H](CO)[C@@H](O)[C@H](N)[C@@H]3O)[C@H](N)C[C@@H]2N)[C@H](O)[C@@H](O)[C@H]1O", "inactive"],
  ["CCN1CCC(n2cc(CNc3cc(Cl)c4ncc(C#N)c(Nc5ccc(F)c(Cl)c5)c4c3)nn2)CC1", "18.7 µM (active)"]
]}
